Test system: SYK;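 also: KINOMEscan kinase panel screen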
details: concentration: 1 μM, replicates: in singlicate; n = 1
Entries whose %Inh is below 3% take MET; entries at or above 3% take NOT MET.

Solved entries (count: 5):
- compound: "CSc1ccc(-c2nc3n(c2-c2ccncc2)CCC3)cc1"
  answer-label: "NOT MET"
- compound: "COc1ccc(CSc2nnc(-c3ccc4c(c3)CCO4)o2)cc1"
  answer-label: "MET"
- compound: "Fc1ccc(-c2nc3n(c2-c2ccncc2)CCS3)cc1"
  answer-label: "NOT MET"
- compound: "CCCCc1nn2ncccc2c1-c1ccnc(NC2CC2)n1"
  answer-label: "MET"
- compound: "Cc1ccc(NC(=O)Nc2ccccc2)cc1-c1ccc(C(=O)Nc2ccncc2)cc1"
  answer-label: "NOT MET"

Here is another compound to look at.
Incoming: # TODO verify %Inh < 3% strictly for this compound: CS(=O)(=O)CCNCc1nc(-c2ccc3ncnc(Nc4ccc5c(cnn5Cc5ccccc5)c4)c3c2)cs1.Cl.Cl
Outgoing: NOT MET
